Test system: COLO 205
Assay: NCI tumour cell line growth inhibition, 48 h
The source made the active and inactive calls. Cut-off read from the data, not from the text of the source: active = GI50 up to about 1.1 µM and inactive = higher.
The entries below come with measured GI50 values attached.
experimentalReadout: GI50

molecule: COc1ccc(/C(CC2OC(=O)c3ccccc32)=N\NC(N)=O)cc1 (configuration not stated)
val: > 100 µM (inactive)
--
molecule: Cc1cc(=O)nc(S(=O)(=O)NC(=S)Nc2ccc(Br)cc2)[nH]1
val: > 100 µM (inactive)
--
molecule: COc1cc(/N=N/N(C)C)c(C(C)c2c3cc(OC)c(OC)cc3cc[n+]2C)cc1OC (configuration not stated)
val: 14.8 µM (inactive)
--
molecule: CC(C)(C)NC(=O)NC12CC3CC(CC(F)(C3)C1)C2
val: > 100 µM (inactive)
--
molecule: Cc1cc(NC[C@H](O)[C@H](O)[C@H](O)CO)c(Sc2cc(=O)[nH]c(=O)[nH]2)cc1C
val: > 62.5 µM (inactive)
--
molecule: COc1ccc(C(Nc2ccccn2)c2cc(C(C)(C)C)cc(C(C)(C)C)c2O)cc1 (configuration not stated)
val: 19 µM (inactive)
--
molecule: COc1ccc(NC(=O)/C(O)=C/C(=O)c2ccccc2)cc1
val: > 10 µM (inactive)
